These entries and their values trace back to patent US20200262877A1.

# study-system: Cav2.1 (Homo sapiens, UniProt O00555)
Where a name gives a salt, the structure may show the parent alone.
endpoint: IC50
Answer with the figure and its unit, nothing else.

Requested read-out IC50, target or system Cav2.1 (Homo sapiens, UniProt O00555), entry COCC(=O)O[C@]1(CCN(C)CCCc2nc3ccccc3[nH]2)CCc2cc(F)ccc2[C@@H]1C(C)C [Mibefradil dihydrochloride, reference compound]
2120 nM

###

# study-system: Kv1.1 (Homo sapiens)
# Construct: host or cells: HEK293 or CHO
# Sequence (Q09470 whole entry): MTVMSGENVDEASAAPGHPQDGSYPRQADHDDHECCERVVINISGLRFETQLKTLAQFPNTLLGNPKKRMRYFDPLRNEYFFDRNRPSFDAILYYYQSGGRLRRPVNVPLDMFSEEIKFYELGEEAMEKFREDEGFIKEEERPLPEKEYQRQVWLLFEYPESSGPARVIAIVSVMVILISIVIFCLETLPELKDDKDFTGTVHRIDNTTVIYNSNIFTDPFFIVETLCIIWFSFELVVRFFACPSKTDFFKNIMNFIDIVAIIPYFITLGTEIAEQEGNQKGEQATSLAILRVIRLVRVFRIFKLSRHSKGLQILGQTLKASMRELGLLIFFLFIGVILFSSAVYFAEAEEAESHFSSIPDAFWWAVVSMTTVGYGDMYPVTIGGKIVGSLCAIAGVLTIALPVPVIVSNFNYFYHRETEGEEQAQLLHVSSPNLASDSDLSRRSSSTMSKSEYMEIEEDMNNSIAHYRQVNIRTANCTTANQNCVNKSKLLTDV
# test-method-notes: cell-based
# Assay type: cell-based
# test-parameters: peptide at 0.2 μM; 100% = no change, <100% = inhibition
endpoint: Activity of Kv1.1 with peptide, expressed as a percentage of the reference compound (%)
Answers are plain numbers, in %.

Worked examples follow.
1. 34 (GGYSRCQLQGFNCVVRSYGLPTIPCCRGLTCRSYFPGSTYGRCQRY) [compound 34]; 109
2. 26 (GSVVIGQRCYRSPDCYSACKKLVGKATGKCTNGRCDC) [compound 26]; 66
3. 29 (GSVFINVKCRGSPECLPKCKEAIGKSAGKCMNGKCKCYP) [compound 29]; 97
4. 32 (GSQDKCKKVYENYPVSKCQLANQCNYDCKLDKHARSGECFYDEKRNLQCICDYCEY) [compound 32]; 76
5. 39 (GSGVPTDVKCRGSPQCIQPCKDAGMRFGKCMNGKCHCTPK) [compound 39]; 37
6. 13 (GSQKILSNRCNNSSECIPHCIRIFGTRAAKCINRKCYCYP) [compound 13]; 107
7. 21 (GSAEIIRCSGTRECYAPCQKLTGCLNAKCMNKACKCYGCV) [compound 21]; 106
8. 10 (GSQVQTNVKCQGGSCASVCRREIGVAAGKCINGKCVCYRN) [compound 10]; 117

Provide the reported Activity of Kv1.1 with peptide, expressed as a percentage of the reference compound of each entry below, same order.
1. 16 (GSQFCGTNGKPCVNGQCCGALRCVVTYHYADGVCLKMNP) [compound 16]
2. 30 (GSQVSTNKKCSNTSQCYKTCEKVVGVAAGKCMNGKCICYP) [compound 30]
3. 12 (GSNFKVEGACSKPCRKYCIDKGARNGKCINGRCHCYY) [compound 12]
4. 36 (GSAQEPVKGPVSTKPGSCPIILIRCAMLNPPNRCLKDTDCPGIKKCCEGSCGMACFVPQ) [compound 36]
5. 25 (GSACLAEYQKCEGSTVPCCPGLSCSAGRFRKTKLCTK) [compound 25]
6. 4 (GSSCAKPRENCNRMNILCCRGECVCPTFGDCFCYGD) [compound 4]
7. 17 (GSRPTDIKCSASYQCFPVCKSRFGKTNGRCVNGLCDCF) [compound 17]
8. 2 (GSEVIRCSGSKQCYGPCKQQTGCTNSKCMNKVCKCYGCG) [compound 2]

1. 84
2. 98
3. 107
4. 82
5. 69
6. 106
7. 106
8. 114

Provide the reported Activity of Kv1.1 with peptide, expressed as a percentage of the reference compound of each entry below, same order.
1. 11 (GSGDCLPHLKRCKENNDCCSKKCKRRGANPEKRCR) [compound 11]
2. 20 (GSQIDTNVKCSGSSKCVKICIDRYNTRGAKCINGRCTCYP) [compound 20]

1: 99; 2: 94

###

Give measured Activity of 5HT3a with peptide, expressed as a percentage of the reference compound for each item. Keep answers brief.
# study-system: 5HT3a (Homo sapiens)
# Construct: host or cells: HEK293 or CHO
# Sequence (P46098 whole entry, looked up): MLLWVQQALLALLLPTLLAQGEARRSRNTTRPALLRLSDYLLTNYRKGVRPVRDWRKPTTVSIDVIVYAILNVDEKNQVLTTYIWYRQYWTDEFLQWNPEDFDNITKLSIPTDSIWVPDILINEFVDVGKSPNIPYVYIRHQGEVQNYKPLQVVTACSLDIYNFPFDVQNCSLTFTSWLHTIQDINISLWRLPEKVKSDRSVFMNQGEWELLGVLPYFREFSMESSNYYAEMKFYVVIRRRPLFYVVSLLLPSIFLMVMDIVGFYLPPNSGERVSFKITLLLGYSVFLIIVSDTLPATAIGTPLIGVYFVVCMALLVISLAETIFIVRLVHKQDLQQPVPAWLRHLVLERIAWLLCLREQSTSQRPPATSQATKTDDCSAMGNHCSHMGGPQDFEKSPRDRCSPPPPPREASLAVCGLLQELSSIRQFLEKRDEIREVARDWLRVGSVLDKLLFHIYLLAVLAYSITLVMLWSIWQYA
# test-method-notes: Ion channel panel (IonWorks Barracuda): 5HT3a
# Format: cell-based
Give bare numbers, in %.

Provide the reported Activity of 5HT3a with peptide, expressed as a percentage of the reference compound of each entry below, same order.
1. 16 (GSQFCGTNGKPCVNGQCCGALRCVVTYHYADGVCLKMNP) [compound 16]
2. 4 (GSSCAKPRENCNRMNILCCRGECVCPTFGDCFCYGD) [compound 4]
3. 27 (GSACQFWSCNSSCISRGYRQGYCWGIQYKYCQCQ) [compound 27]
4. 18 (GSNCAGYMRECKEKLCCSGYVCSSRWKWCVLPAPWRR) [compound 18]

1: 114; 2: 103; 3: 105; 4: 95

// returns reported Activity of 5HT3a with peptide, expressed as a percentage of the reference compound for input 10 (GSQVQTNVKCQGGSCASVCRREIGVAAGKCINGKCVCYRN) [compound 10]
90

###

# study-system: NR2A (Homo sapiens, UniProt Q12879)
# Construct: host or cells: HEK293 or CHO
# Sequence (Q12879 23-1464, other chains not shown): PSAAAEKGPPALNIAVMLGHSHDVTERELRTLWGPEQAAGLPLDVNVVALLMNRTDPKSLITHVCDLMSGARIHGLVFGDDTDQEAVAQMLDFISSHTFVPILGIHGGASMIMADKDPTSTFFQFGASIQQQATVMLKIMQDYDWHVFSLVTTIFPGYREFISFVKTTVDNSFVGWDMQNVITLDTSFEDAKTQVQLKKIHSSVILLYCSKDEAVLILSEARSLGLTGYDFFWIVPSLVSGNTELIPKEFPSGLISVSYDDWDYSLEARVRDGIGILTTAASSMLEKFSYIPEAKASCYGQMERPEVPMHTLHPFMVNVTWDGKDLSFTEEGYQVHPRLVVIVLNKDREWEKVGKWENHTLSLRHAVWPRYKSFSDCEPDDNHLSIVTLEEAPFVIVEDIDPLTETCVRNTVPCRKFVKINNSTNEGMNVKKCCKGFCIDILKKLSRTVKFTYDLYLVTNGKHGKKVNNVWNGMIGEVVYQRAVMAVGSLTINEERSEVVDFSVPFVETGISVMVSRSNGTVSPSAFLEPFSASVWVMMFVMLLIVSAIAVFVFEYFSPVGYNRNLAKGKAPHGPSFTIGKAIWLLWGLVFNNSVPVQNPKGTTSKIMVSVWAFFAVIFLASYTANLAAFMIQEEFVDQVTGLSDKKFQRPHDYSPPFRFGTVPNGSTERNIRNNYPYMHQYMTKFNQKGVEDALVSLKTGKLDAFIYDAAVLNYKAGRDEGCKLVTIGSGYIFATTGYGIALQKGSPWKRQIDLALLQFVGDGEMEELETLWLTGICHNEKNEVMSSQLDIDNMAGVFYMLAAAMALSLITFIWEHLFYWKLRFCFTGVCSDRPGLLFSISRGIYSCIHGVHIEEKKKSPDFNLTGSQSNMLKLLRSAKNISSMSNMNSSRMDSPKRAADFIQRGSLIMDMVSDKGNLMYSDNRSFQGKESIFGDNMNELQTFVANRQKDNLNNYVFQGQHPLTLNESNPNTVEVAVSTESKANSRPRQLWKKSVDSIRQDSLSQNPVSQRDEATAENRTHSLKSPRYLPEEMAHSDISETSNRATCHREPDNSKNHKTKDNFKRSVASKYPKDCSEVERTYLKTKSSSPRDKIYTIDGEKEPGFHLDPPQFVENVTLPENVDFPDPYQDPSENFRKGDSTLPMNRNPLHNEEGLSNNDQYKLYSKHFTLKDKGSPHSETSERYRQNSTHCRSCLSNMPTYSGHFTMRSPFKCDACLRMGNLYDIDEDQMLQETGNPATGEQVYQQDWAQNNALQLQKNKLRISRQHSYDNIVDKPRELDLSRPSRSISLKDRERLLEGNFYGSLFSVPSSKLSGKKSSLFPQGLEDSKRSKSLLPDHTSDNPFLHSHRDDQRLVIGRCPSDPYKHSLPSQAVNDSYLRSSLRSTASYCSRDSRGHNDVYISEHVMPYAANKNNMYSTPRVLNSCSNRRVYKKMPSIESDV
# test-method-notes: Ion channel panel (IonWorks Barracuda): NR2A
# Type: cell-based
# test-parameters: peptide at 0.2 μM; 100% = no change, <100% = inhibition
endpoint: Activity of NR2A with peptide, expressed as a percentage of the reference compound (%)
Numbers only, in %.

1. 21 (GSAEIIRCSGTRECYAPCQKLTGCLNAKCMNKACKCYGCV) [compound 21]; 105
2. 24 (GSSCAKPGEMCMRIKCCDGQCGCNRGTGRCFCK) [compound 24]; 102
3. 39 (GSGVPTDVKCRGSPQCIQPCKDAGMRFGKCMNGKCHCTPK) [compound 39]; 106

Provide the reported Activity of NR2A with peptide, expressed as a percentage of the reference compound of each entry below, same order.
1. 26 (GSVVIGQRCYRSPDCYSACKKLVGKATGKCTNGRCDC) [compound 26]
2. 9 (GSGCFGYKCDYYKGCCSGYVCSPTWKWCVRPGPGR) [compound 9]
3. 6 (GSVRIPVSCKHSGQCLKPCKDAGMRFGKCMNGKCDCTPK) [compound 6]
4. 5 (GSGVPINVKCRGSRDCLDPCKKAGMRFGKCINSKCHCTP) [compound 5]
5. 22 (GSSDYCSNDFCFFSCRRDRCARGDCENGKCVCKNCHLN) [compound 22]
6. 3 (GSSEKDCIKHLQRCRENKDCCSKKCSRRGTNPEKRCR) [compound 3]

1: 113; 2: 89; 3: 86; 4: 109; 5: 107; 6: 97

###

# study-system: α3β4 (Homo sapiens, UniProt P30926+P32297)
# Construct: host or cells: HEK293 or CHO
# Sequence (P30926 22-498): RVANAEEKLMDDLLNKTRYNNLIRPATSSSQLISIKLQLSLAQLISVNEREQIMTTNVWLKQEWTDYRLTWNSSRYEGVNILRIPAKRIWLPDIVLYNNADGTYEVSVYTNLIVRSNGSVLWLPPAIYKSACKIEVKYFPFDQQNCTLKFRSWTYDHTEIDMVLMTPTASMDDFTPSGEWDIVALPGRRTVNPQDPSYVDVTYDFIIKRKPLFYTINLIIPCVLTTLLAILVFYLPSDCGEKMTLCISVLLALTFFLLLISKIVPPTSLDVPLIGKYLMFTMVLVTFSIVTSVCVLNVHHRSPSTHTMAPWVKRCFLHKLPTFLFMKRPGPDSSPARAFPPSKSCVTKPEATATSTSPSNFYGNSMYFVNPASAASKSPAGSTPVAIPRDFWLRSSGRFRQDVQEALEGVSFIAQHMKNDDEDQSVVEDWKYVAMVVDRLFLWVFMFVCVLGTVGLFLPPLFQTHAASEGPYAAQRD
# Sequence (P32297 32-505): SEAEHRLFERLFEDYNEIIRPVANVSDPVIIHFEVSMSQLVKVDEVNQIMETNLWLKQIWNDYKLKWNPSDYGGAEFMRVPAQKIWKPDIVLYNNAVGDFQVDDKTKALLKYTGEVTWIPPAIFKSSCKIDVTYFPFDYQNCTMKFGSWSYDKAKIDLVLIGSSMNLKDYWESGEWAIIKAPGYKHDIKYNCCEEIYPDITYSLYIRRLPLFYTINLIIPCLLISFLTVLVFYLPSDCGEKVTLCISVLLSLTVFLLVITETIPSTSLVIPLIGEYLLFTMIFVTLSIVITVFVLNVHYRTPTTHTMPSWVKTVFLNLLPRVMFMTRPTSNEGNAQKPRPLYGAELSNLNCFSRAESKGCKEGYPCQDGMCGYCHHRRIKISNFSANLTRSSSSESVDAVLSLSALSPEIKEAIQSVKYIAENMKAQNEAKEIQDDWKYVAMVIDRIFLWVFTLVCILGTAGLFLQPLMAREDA
# test-method-notes: Ion channel panel (IonWorks Barracuda): α3β4
# Assay type: cell-based
# test-parameters: peptide at 0.2 μM; 100% = no change, <100% = inhibition
# Description: This example describes a method for assaying ion channel activity in cells. Peptides were screened in duplicate at final concentrations of 20 μM and 200 nM, as determined by amino acid analysis, and diluted into HEPES buffered physiological saline (HBPS). HEK293 or CHO cells from the American Type Culture Collection (ATCC) were transfected with the appropriate ion channel before use. […]
endpoint: Activity of a3b4 with peptide, expressed as a percentage of the reference compound (%)
Give bare numbers, in %.

1. 23 (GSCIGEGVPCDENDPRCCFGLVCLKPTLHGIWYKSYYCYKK) [compound 23]; 94
2. 13 (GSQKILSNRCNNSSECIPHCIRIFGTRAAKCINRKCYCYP) [compound 13]; 103
3. 15 (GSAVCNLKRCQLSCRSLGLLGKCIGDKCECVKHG) [compound 15]; 91
4. 25 (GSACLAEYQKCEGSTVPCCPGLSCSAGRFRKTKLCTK) [compound 25]; 105

Provide the reported Activity of a3b4 with peptide, expressed as a percentage of the reference compound of each entry below, same order.
1. 32 (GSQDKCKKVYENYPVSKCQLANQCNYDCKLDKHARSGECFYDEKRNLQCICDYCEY) [compound 32]
2. 4 (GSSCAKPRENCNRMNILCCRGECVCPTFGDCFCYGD) [compound 4]
3. 16 (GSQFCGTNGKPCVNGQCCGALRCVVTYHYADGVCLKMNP) [compound 16]
4. 9 (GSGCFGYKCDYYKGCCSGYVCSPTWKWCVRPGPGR) [compound 9]
5. 5 (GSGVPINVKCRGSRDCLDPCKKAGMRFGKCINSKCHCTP) [compound 5]

1. 100
2. 107
3. 100
4. 105
5. 104
